# system-tested: GlcNAc(b1-3)Gal(b1-4)GlcNAc(b1-6)[GlcNAc(b1-3)]Gal(b1-4)GlcNAc
# experimental-protocol: glycan array binding signal (z-score within array); higher = stronger binding
# condition-set: glycan notation: IUPAC condensed, linker removed
The entries come from a sample that favours the strongest signals as a whole.
measured-attribute: glycan array binding signal (z-score)
Keep the answer to the number alone.

Dear colleague, I am looking for the recorded glycan array binding signal (z-score) of the following binder: OVGAL11 (Ovis aries), AAF64320 (protein) MDSLPNPYLQSVSLTVCYMVKIKANLLSAFGKNPELQVDFGTGTGQGGNIPFRFWYCDGMVVMNTFTDGSWQKEEKVLTDAFVPGQPFELQFLVLEKEYQVFVKNKPICQFAHRLPLQSVKMLDVRGDIVLTSVDTL
-0.102

Dear colleague, I am looking for the recorded glycan array binding signal (z-score) of the following binder: GNL (Galanthus nivalis) (protein) MGHHHHHHHHYGTLENGHWLMVGMSIFSKDRTVELRMQDDGKLAIYYNDHCAWQSTAQQVNNAKGAVMQGDGNFCIYDKNGKATWHTNTAAPSGDSHTFVSVQDDGNLVLYKNNGATPIWSSKSNK
-0.255

Dear colleague, I am looking for the recorded glycan array binding signal (z-score) of the following binder: HFR-3 (Triticum aestivum) (protein) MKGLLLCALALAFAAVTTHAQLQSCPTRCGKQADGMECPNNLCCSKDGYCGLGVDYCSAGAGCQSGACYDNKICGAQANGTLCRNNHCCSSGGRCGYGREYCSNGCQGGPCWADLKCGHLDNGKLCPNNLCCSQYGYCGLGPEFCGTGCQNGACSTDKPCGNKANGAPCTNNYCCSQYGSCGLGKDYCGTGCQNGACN
-1.09

Dear colleague, I am looking for the recorded glycan array binding signal (z-score) of the following binder: Mermaid2 (Stilbonema majum) (protein) MGSSHHHHHHSSGLVPRGSHMAASGWLRSPQGTVVKLYRRSLSWSKADEFCKDVDGRLVVDRTADMHLFLIKNVLKEKKSRVWVGLRRTAPHSRTWIWSDGTRQNEDDLNTNLWLRDEPNDAAGEEECALFMYSPWEKAWGLNDYLCRGGCRSYQFICEKGIR
-0.719

Dear colleague, I am looking for the recorded glycan array binding signal (z-score) of the following binder: pTFF2 (Sus scrofa), P01359 (protein) KPAACRCSRQDPKNRVNCGFPGITSDQCFTSGCCFDSQVPGVPWCFKPLPAQESEECVMEVSARKNCGYPGISPEDCAARNCCFSDTIPEVPWCFFPMSVEACHY
-0.954
